B1: Pistol ribozyme (parent)
chain: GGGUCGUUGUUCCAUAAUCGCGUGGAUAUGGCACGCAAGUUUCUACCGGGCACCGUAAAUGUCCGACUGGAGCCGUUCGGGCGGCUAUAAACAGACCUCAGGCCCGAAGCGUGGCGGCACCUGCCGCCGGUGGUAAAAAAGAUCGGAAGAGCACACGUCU

- Variants of: B1
- assay comment: aptazyme ON/OFF ratio, guanine; higher = stronger switching; co-transcriptional cleavage with and without guanine
measure name: aptazyme ON/OFF ratio

Worked cases, answers included:
U7C U11A C12U C13G ... 1.17
U8C G9C U11A C12G ... 1.18
U8A G9A U10C U11A C12A C13G ... 1.24
U7A U8G G9A U10C C12U C13U ... 1.27
U7G U8G G9U U11G C13G ... 1.19

Fill in aptazyme ON/OFF ratio for each of the 4 variants listed.
1. U8G G9A U10G C12G
2. U8A U10G C12G
3. U7C U8A G9C U10A U11A C12G
4. U7A U8C G9U U10G U11C C12U

Outgoing:
1.34
1.29
1.18
1.12
